- Experimental system: T1, human IL-13 R130Q variant (R110Q of the mature chain) (human, UniProt P35225 35-146, Biotinylated on amines (NHS-LC-biotin, 4:1) in ELISA, panning and competition assays. The letters are unchanged.)
- T1 construct: R130Q counts from Met 1 of the signal peptide, R110Q on the mature chain; Bought from Peprotech; also called IL-13 R110Q; b-R130Q
- Assay remarks: competition ELISA, biotinylated IL-13 R130Q binding to plate-bound IL-13Ra2, crude supernatant
The entries below are paired with their reported Percent Inhibition IL-13 R130Q (333 ng/ml) to Ra2.

• Lc12Hc1 (antibody, V domains shown) VH: QVTLKESGPALVKPTQTLTLTCTFSGFSLSTYGMGVGWIRQPPGKALEWLAHIWWDDVKRYNPALKSRLTISKDTSKNQVVLTMTNMDPVDTATYYCARMGSDYDVWFDYWGQGTLVTVSS VL: DIQMTQSPSSLSASVGDRVTITCRASKSISKYLAWYQQKPEKAPKSLIYSGSTLQSGVPSRFSGSGSGTDFTLTISSLQPEDFATYYCQQHNEYPYTFGGGTKVEIK = 26%
• Lc7Hc6 (antibody, V domains shown) VL: DIQLTQSPSSLSASVGDRVTITCRASKSISKYLAWYRQKPGKVPKLLIYSGSTLQSGVPSRFSGSGSGTDFTLTISSLQPEDVATYYGQQHNEYPYTFGQGTKLEIK VH: QVQLVESGGGVVQPGRSLRLSCAASGFSLSTYGMGVGWVRQAPGKGLEWVAHIWWDDVKRYNPALKSRFTISRDNSKNTLYLQMNSLRAEDTAVYYCARMGSDYDVWFDYWGQGTLVTVSS = 4%

// next entry
query: Please supply the value of reported Percent Inhibition IL-13 R130Q (333 ng/ml) to Ra2 for the item Lc15Hc1 (antibody, V domains shown) VH: QVTLKESGPALVKPTQTLTLTCTFSGFSLSTYGMGVGWIRQPPGKALEWLAHIWWDDVKRYNPALKSRLTISKDTSKNQVVLTMTNMDPVDTATYYCARMGSDYDVWFDYWGQGTLVTVSS VL: VIWMTQSPSLLSASTGDRVTISCRASKSISKYLAWYQQKPGKAPELLIYSGSTLQSGVPSRFSGSGSGTDFTLTISCLQSEDFATYYCQQHNEYPYTFGGGTKVEIK
result: 44%
